Items are presented alongside their recorded cleaved RNA product abundance.
test system: Bacillus subtilis; experiment: cleaved RNA product abundance (RNA/gDNA barcode ratio) relative to median wild-type variant (ratio to wild type); higher = more accumulation of the downstream cleavage product; conditions: experiment (reporter, strain, medium): exp 2b: truncated aprE reporter, strain BJT200; cleavage site: cggR-gapA (positions -7 to +36 mutated)
Just the number.

1. ACAGACGAAGGAGCCGCAAAAAAGTTATTAAGGGATGAATAATCCCTGAATATAAAGATCTCTCACTTATTTAAA = 0.364
2. ACAGACGAAGGAGCCGCAAAGAAGTTATTAAGGTATGAATAATCCCTCAATACAAATATCTCTCACTTATTTAAA = 0.0986
3. ACAGACGAAGGAGCCGCAAAGAAGTTATTAAGCGATAAATAATCCCTCAATATAAATATCTCTCACTTATTTAAA = 0.0673
4. ACAGACGAAGGAGCCGCAAAGAAGTTATTAAGGCATGAATAATCCCTCAAAATAAATATCTCTCACTTATTTAAA = 0.0982
5. ACAGACGAAGGAGCCGCAAAGAAGTTATTAAGGGATGAATAATCGCTAAATATAAATATCTCTCACTTATTTAAA = 0.0982
6. ACAGACGAAGGAGCCGCAAAGAAGTTATTAAGGGATGAATAATCCCTTAATATAAATATCTCTCACTTATTTAAA = 0.782

Missing value: cleaved RNA product abundance, Bacillus subtilis, entry "ACAGACGAAGGAGCCGCAAAAAAGTTATTAAGCGATGAATAATCCCTCAATATAAATATCTCTCACTTATTTAAA" . Fill in?
0.091

Missing value: cleaved RNA product abundance, Bacillus subtilis, entry "ACAGACGAAGGAGCCGCAAAGAAGTAATTAAGGGATGCATAATCCCTCAATATAAATATCTCTCACTTATTTAAA" . Fill in?
0.186

Missing value: cleaved RNA product abundance, Bacillus subtilis, entry "ACAGACGAAGGAGCCGCAAAGAAGTTATTAAGGAATGAATAGTCCCTCAATATAAATATCTCTCACTTATTTAAA" . Fill in?
0.101

Missing value: cleaved RNA product abundance, Bacillus subtilis, entry "ACAGACGAAGGAGCCGCAAAGAAGTTATTAAGGCATGACTAATCCCTCAATATAAATATCTCTCACTTATTTAAA" . Fill in?
0.101

Missing value: cleaved RNA product abundance, Bacillus subtilis, entry "ACAGACGAAGGAGCCGCAAAGAAGTTATTAAGGGATGAATAATCCCTCAATATCAATATCTCTCACTTATTTAAA" . Fill in?
0.126

Missing value: cleaved RNA product abundance, Bacillus subtilis, entry "ACAGACGAAGGAGCCGCAAAGAAGTTATTAAGGAATGAATAATCCATCAATATAAATATCTCTCACTTATTTAAA" . Fill in?
0.0915

====

system: Bacillus subtilis; test: cleaved RNA product abundance (RNA/gDNA barcode ratio) relative to median wild-type variant (ratio to wild type); higher = more accumulation of the downstream cleavage product; conditions: experiment (reporter, strain, medium): exp 8a: truncated aprE reporter, strain BJT201 with 2% xylose (RNase J1 expressed); cleavage site: glnRA (positions -5 to +31 mutated)
measured property: cleaved RNA product abundance
Just the number.

1. CGACATGTCCCGCTTCTTTCATTAATCCGTTAGCCACTGTTTTGCTATATACATTTACTTTTTAAGAGGAGGAAT = 0.98
2. CGACATGTCCCGCTTCTTTCATTAATCCGTTAGCAACAGTTTTGCTATATACATTTACCTTTTAAGAGGAGGAAT = 0.814
3. CGACATGTCCCGCTTCTTTCATTAATCCGTTAGCAACTATTTTACTATATACATTTACCTTTTAAGAGGAGGAAT = 0.726
4. CGACATGTCCCGCTTCTTTCATTAATCCGTTAGCAACTTTTTTGCTATATACATTTACCATTTAAGAGGAGGAAT = 1.97
5. CGACATGTCCCGCTTCTTTCATTAATCCCTTAGCAACTGTTTTGCTATATACATATACCTTTTAAGAGGAGGAAT = 0.267

Give the measured cleaved RNA product abundance of "CGACATGTCCCGCTTCTTTCATTAATCCGTTAGCAACTGTTTTGTTATAAACATTTACCTTTTAAGAGGAGGAAT" .
0.322

Give the measured cleaved RNA product abundance of "CGACATGTCCCGCTTCTTTCATTAATCCGTTAGGAACTATTTTGCTATATACATTTACCTTTTAAGAGGAGGAAT" .
0.437
